Record form. Attribute: Inhibition. Fill in for each entry.
# Test system: Candida albicans
# test.parameters: 32 ug/mL
# Description: Antifungal activity against Candida albicans ATCC 90028 (CO-ADD:FG_001); MIC in YNB media using NBS plates, by OD630
Potency and affinity values are given separately.
Numbers only here, please. The scale is %.

Req: Give me measured Inhibition, please, for this molecule: `CN(C)CCCNC(=O)c1cc(NC(=O)c2cc(NC(=O)CCC(=O)O)cn2C)cn1C.O=C(O)C(F)(F)F`
Resp: 0.85

Req: Give me measured Inhibition, please, for this molecule: `COc1ccc(CC(=O)Nc2cc(C(=O)Nc3cc(C(=O)Nc4cn(CCCN(C)C)cn4)n(C)c3)n(C)c2)cc1.O=C(O)C(F)(F)F`
Resp: 1.27

Req: Give me measured Inhibition, please, for this molecule: `Cc1ncc(CNc2ccc(Cl)cc2)c(N)n1`
Resp: -0.54

Req: Give me measured Inhibition, please, for this molecule: `Cn1cc(NC(=O)c2cc(NC(=O)c3ccc(/C=C/c4cccc(F)c4)cc3)cn2C)cc1C(=O)NCCN1CCOCC1.O=C(O)C(F)(F)F`
Resp: 24.2

Req: Give me measured Inhibition, please, for this molecule: `CC(=O)Nc1cc(C(=O)Nc2cc(C(=O)Nc3cc(C(=O)NCCCN(C)C)n(CCC(C)C)c3)n(C)c2)n(C)c1.O=C(O)C(F)(F)F`
Resp: 0.94

Req: Give me measured Inhibition, please, for this molecule: `CC(C)c1sc(N)nc1C(=O)Nc1cc(C(=O)Nc2cc(C(=O)NCCN3CCOCC3)n(C)c2)n(C)c1.O=C(O)C(F)(F)F`
Resp: 3.25

Req: Give me measured Inhibition, please, for this molecule: CCOC(=O)CCC(NC(=O)c1ccc(NCc2cn(Cc3cnc(C)nc3N)nn2)cc1)C(=O)OCC (configuration not stated)
Resp: 5.67

Req: Give me measured Inhibition, please, for this molecule: `COc1cccc(C(=N)Nc2cc(C(=O)Nc3cc(C(=O)Nc4cc(C(=O)NCCCN(C)C)n(C)c4)n(C)c3)n(C)c2)c1.O=C(O)C(F)(F)F.O=C(O)C(F)(F)F`
Resp: 0.48

Req: Give me measured Inhibition, please, for this molecule: `Cc1ncc(CNc2ccccc2F)c(N)n1`
Resp: 1.65

Req: Give me measured Inhibition, please, for this molecule: `Cc1ncc(CNc2cccc(F)c2)c(N)n1`
Resp: 1.91

Req: Give me measured Inhibition, please, for this molecule: `Cc1ccc(S(=O)(=O)NCCc2cn(Cc3cnc(C)nc3N)nn2)cc1`
Resp: 3.05

Req: Give me measured Inhibition, please, for this molecule: `Cc1ncc(CO)c(N)n1`
Resp: -0.12

Req: Give me measured Inhibition, please, for this molecule: `Cn1cc(NC(=O)c2cc(NC(=O)c3sc(N)nc3C(F)(F)F)cn2C)cc1C(=O)NCCN1CCOCC1.O=C(O)C(F)(F)F`
Resp: 1.1

Req: Give me measured Inhibition, please, for this molecule: `COC(=O)CCC(=O)Nc1cc(C(=O)Nc2cc(C(=O)NCCCN(C)C)n(C)c2)n(C)c1.O=C(O)C(F)(F)F`
Resp: 0.6

Req: Give me measured Inhibition, please, for this molecule: `CC(C)CCc1sc(NC(=O)c2cc(NC(=O)c3cc(NC(=O)c4ccc(C(=O)O)cc4)cn3C)cn2C)nc1C(=O)NCCCN(C)C.O=C(O)C(F)(F)F`
Resp: 8.07

Req: Give me measured Inhibition, please, for this molecule: `Cc1ncc(Cn2cc(CCCO)nn2)c(N)n1`
Resp: 0.26

Req: Give me measured Inhibition, please, for this molecule: `COC(=O)c1ccc(C(=O)Nc2cc(C(=O)Nc3cc(C(=O)NCCCN(C)C)n(C)c3)n(C)c2)cc1.O=C(O)C(F)(F)F`
Resp: 1.31
